molecular target: Epidermal growth factor receptor (Homo sapiens, UniProt P00533); test: Inhibition of recombinant human N-terminal GST-tagged EGFR (668 to end residues) expressed in baculovirus infected Sf9 insect cells assessed as reduction in […] EGFR phosphorylation […] by TMB peroxidase substrate based assay
Sequence (P00533 whole entry): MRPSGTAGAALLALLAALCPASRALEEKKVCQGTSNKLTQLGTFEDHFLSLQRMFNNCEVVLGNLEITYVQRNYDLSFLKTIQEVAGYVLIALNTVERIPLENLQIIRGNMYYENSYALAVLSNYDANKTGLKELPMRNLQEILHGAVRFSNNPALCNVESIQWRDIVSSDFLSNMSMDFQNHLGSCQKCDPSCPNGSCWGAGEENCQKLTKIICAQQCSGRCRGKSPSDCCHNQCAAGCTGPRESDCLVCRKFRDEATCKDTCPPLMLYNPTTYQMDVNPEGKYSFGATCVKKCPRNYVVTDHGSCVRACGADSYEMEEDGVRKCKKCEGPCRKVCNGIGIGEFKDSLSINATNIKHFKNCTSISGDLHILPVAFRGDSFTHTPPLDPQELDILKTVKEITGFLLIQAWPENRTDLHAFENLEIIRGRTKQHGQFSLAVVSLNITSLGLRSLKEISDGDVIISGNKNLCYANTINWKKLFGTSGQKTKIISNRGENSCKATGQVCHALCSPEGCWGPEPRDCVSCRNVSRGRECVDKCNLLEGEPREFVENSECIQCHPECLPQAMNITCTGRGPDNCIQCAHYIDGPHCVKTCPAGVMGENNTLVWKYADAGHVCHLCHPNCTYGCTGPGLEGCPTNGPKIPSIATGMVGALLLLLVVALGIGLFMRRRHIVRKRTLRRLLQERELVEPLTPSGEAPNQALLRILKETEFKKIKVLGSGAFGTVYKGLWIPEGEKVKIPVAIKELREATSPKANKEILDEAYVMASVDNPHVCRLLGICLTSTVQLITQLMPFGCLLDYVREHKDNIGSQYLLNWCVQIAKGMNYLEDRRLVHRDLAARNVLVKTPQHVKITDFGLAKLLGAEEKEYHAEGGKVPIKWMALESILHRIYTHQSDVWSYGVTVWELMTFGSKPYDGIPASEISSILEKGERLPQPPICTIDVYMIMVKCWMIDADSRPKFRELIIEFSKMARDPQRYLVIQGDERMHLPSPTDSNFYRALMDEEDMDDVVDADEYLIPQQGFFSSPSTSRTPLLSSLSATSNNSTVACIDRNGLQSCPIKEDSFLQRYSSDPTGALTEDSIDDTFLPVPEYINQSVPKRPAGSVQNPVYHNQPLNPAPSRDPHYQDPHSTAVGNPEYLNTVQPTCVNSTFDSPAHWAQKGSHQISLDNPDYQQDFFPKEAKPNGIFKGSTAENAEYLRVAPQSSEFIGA
assayMetric: IC50 (nM)
The reply should be a number in nM, with the unit left off.

Observed IC50 on Epidermal growth factor receptor (Homo sapiens, UniProt P00533) for CN(CCOS(=O)(=O)CCc1cn(CCCC(=O)N2CCN(C(=O)c3cc(Cc4n[nH]c(=O)c5ccccc45)ccc3F)CC2)nn1)c1ccc2ncnc(Nc3cccc(Br)c3)c2c1 , please.
326
